Test system: HT-29
experimental_protocol: NCI tumour cell line growth inhibition, 48 h
Calls of active or inactive are those of the source. No stated cut-off is given here; in the data, active = GI50 up to about 1.1 µM and inactive = higher.
Hi there, use one of these labels in your reply, thanks! T (active), F (inactive)

>  <compound>
O=C1NC2C(=CC(O)C(O)C2O)c2cc3c(cc21)OCO3 (stereo unspecified)

>  <label_value>
T

$$$$

Incoming: Would you mind telling me which call this test gave COC(=O)C1(F)C(=O)NC(=O)NC1O (stereo unspecified) ?
Outgoing: F

Incoming: Would you mind telling me which call this test gave O=c1c(Cc2ccccc2Cc2c(O)oc3ccccc3c2=O)c(O)oc2ccccc12 ?
Outgoing: F

Incoming: Would you mind telling me which call this test gave COc1cc([C@@H]2c3cc4c(cc3[C@@H](Nc3ccc(Cl)cc3C(=O)c3ccccc3Cl)[C@H]3COC(=O)[C@H]23)OCO4)cc(OC)c1OC ?
Outgoing: T

Incoming: Would you mind telling me which call this test gave Nc1n[nH]c2c(C(=O)Nc3ccc(Cl)cc3)c(N)n(N)c(=O)c12 ?
Outgoing: F

###

System: OVCAR-4
experimental_protocol: NCI tumour cell line growth inhibition, 48 h
Active and inactive are the calls of the source. Cut-off read from the data, not from the text of the source: active = GI50 up to about 1.1 µM and inactive = higher.
Hi there, use one of these labels in your reply, thanks! Y for active, N for inactive

The examples below pair each entry with its known result.
>  <molecule>
CC/C=C/C[C@H](O[Si](C)(C)C(C)(C)C)[C@H]1C[C@H]2O[C@H]([C@@H](O)C#C[Si](C)(C)C)C[C@H]2O1

>  <label_value>
N

$$$$
>  <molecule>
CC(Cc1ccc2c(c1)OCO2)N(C)C(=O)C1=CCN(C)CC1 (stereo unspecified)

>  <label_value>
N

$$$$
>  <molecule>
Cc1cc(O)nc(NNC(C#N)c2ccc(O)cc2)n1 (stereo unspecified)

>  <label_value>
N

$$$$
>  <molecule>
COc1ccc(CCn2ccc(C)n2)c(OC)c1

>  <label_value>
N

$$$$
>  <molecule>
CC(=O)C(=CNc1c(C)n(C)n(-c2ccccc2)c1=O)C(C)=O

>  <label_value>
N

$$$$
>  <molecule>
CC1=NN(C(=O)CC(=O)Nc2cccc(C)c2)C(=O)C1/N=N/c1ccc(S(=O)(=O)CCOS(=O)(=O)O)cc1 (stereo unspecified)

>  <label_value>
N

$$$$
>  <molecule>
CN(C)CCC1(C2=CCCC2)CC/C(=C\c2ccccc2)C1=O (stereo unspecified)

>  <label_value>
N

$$$$
>  <molecule>
CCC(CC)NC1=C(NC(C)=O)C(=O)c2ccccc2C1=O

>  <label_value>
N

$$$$

Now examine the next entry.
Incoming: Would you mind telling me which call this test gave CCOC(=O)C1=COC(C)(C)CC1=O ?
Outgoing: N

###

Test system: LXFL 529
experimental_protocol: NCI tumour cell line growth inhibition, 48 h
Calls of active or inactive are those of the source. Cut-off read from the data, not from the text of the source: active = GI50 up to about 1.1 µM and inactive = higher.
Reported values of GI50 for individual entries

Solved cases (3 shown):
>  <molecule>
Oc1nc(CC(O)c2ccc(Cl)c(Cl)c2)cc(-c2ccccc2)n1 (stereo not given)

>  <assay_endpoint>
GI50

>  <reported>
> 100 µM (inactive)

$$$$
>  <molecule>
NC(CCCC(N)P(=O)(O)c1ccccc1)P(=O)(O)c1ccccc1 (stereo not given)

>  <assay_endpoint>
GI50

>  <reported>
> 261 µM (inactive)

$$$$
>  <molecule>
CNC1CC(n2cc(C)c(=O)[nH]c2=O)OC1CO (stereo not given)

>  <assay_endpoint>
GI50

>  <reported>
> 100 µM (inactive)

$$$$

Incoming: Return GI50 for the following molecule: CC1NC(=O)C2=C1C(N)=NC(=O)C2 (stereo not given)
Outgoing: > 100 µM (inactive)

Incoming: Return GI50 for the following molecule: O=C1NC(=O)C(C(=O)C(=O)Nc2cc(Cl)ccc2Cl)C(=O)N1
Outgoing: > 100 µM (inactive)
